Where these numbers come from: ChEMBL document CHEMBL4513216

- Tested on: Plasmodium berghei
- assay method text: Screen against P. berghei liver stage (PbLuc), transformed with Luciferase, at 2uM
- Type: functional, HepG2
- settings: tested at 2 uM
About 2,700 (4%) of roughly 68,000 compounds showed an effect of 50% or more. The list comes from a sample in which strong results are over-represented; it also holds close analogues and randomly drawn compounds.
property: INHIBITION (%)

[
  {
    "compound": "Cc1cc(CN2CC[C@H]3[C@H]2CCN3S(C)(=O)=O)oc1C",
    "unit descriptor": "%",
    "reported value": -12.98
  },
  {
    "compound": "c1coc(-c2nc(CN3CCn4c(nnc4C4CC4)C3)cs2)c1",
    "unit descriptor": "%",
    "reported value": 39.65
  },
  {
    "compound": "COc1cccc(C(=O)C2CCCN(c3cc(C#N)ccn3)C2)c1 (stereo not drawn)",
    "unit descriptor": "%",
    "reported value": -45.86
  },
  {
    "compound": "Cc1cnc(NCc2ccncc2)nc1-c1cnn(C)c1",
    "unit descriptor": "%",
    "reported value": 72.34
  },
  {
    "compound": "O=C(NCCc1nnc2n1CCC2)NCC1(c2ccc(F)cc2)CC1",
    "unit descriptor": "%",
    "reported value": 81.42
  },
  {
    "compound": "Cc1cnn(CC2CN(Cc3cccnc3)CCO2)c1 (stereo not drawn)",
    "unit descriptor": "%",
    "reported value": 41.76
  },
  {
    "compound": "O=C(NCCc1nnc2n1CCC2)NCC1(c2ccccc2)CC1",
    "unit descriptor": "%",
    "reported value": -1.32
  },
  {
    "compound": "Clc1cnccc1N1CCCOCC1",
    "unit descriptor": "%",
    "reported value": -149.33
  },
  {
    "compound": "CCN1CCCc2cc(CN3CCc4c(nc(C)[nH]c4=O)C3)ccc21",
    "unit descriptor": "%",
    "reported value": -9.49
  },
  {
    "compound": "O=C(NCc1nnc2n1CCCC2)N1CCc2sccc2C1",
    "unit descriptor": "%",
    "reported value": 53.11
  },
  {
    "compound": "O=C(c1ccccn1)N1Cc2nccn2CC(COc2cccnc2)C1 (stereo not drawn)",
    "unit descriptor": "%",
    "reported value": -28.34
  },
  {
    "compound": "CN(CC(=O)N1CCOCC(CO)C1)Cc1ccccn1 (stereo not drawn)",
    "unit descriptor": "%",
    "reported value": 14.96
  },
  {
    "compound": "c1cnc(-c2nc(CN3CCCC(N4CCCC4)C3)cs2)nc1 (stereo not drawn)",
    "unit descriptor": "%",
    "reported value": -44.96
  },
  {
    "compound": "O=C1NCC2(CCN(C(=O)c3ccc4c(c3)CCCO4)CC2)O1",
    "unit descriptor": "%",
    "reported value": 50.59
  },
  {
    "compound": "CN(C)C(=O)Cc1ccccc1NCc1nc(Cc2ccccc2)no1",
    "unit descriptor": "%",
    "reported value": -12.95
  },
  {
    "compound": "O=C(NCc1cnn2cccnc12)C1CC2(CCNCC2)CN1 (stereo not drawn)",
    "unit descriptor": "%",
    "reported value": -1.33
  },
  {
    "compound": "O=C(NCCc1nnc2n1CCC2)NCC1(c2cccc(F)c2)CC1",
    "unit descriptor": "%",
    "reported value": -14.15
  },
  {
    "compound": "Cc1ccc2nc(C)c(C)c(C(=O)NCCCn3ccnn3)c2c1",
    "unit descriptor": "%",
    "reported value": 56.21
  },
  {
    "compound": "Cc1c(C(=O)N(C)C)cccc1N(C)S(C)(=O)=O",
    "unit descriptor": "%",
    "reported value": -0.02
  },
  {
    "compound": "O=C1NCC2(CCCN(C(=O)c3ccc4c(c3)CCCO4)CC2)O1 (stereo not drawn)",
    "unit descriptor": "%",
    "reported value": 26.74
  },
  {
    "compound": "CC(C)c1cc(NC2CCN(C(=O)N3CCCC3)CC2)ncn1",
    "unit descriptor": "%",
    "reported value": 52.98
  },
  {
    "compound": "CCn1c(C)nnc1CN(C)C1CCN(CCn2cccn2)C1 (stereo not drawn)",
    "unit descriptor": "%",
    "reported value": -53.72
  },
  {
    "compound": "Cc1nc(C)n(CC2CN(CCCc3ccccc3)CCO2)n1 (stereo not drawn)",
    "unit descriptor": "%",
    "reported value": 40.72
  },
  {
    "compound": "O=C1OC2(CCN(C3CCCOC3)CC2)CN1CCc1ccccc1 (stereo not drawn)",
    "unit descriptor": "%",
    "reported value": -1.27
  },
  {
    "compound": "Fc1cccc(Cl)c1CN1CCn2c(nnc2C2CC2)C1",
    "unit descriptor": "%",
    "reported value": 7.67
  },
  {
    "compound": "CCc1nc(CC2CN(c3ncnc4sc(C)c(C)c34)CCO2)no1 (stereo not drawn)",
    "unit descriptor": "%",
    "reported value": -7.81
  },
  {
    "compound": "CC(=O)c1cc(C(=O)NC2(c3ccc(Br)cc3)CC2)n(C)c1",
    "unit descriptor": "%",
    "reported value": 63.4
  },
  {
    "compound": "CCNc1ncc(C)c(-c2cnn(C)c2)n1",
    "unit descriptor": "%",
    "reported value": 8.26
  },
  {
    "compound": "Cc1nnc2n1CCN(Cc1c(Cl)ccc3cccnc13)C2",
    "unit descriptor": "%",
    "reported value": 5.28
  },
  {
    "compound": "COc1cc(N2CCC3(CCN(Cc4nccs4)CC3)C2)ncn1",
    "unit descriptor": "%",
    "reported value": 7.71
  },
  {
    "compound": "Cc1ccc(N2C[C@H]3OCC[C@H]3[C@H](C(=O)NCC3CC3)C2)nn1",
    "unit descriptor": "%",
    "reported value": -11.4
  },
  {
    "compound": "CC(=O)c1cc(C(=O)NC2(c3ccccc3)CCC2)n(C)c1",
    "unit descriptor": "%",
    "reported value": 10.43
  },
  {
    "compound": "O=C(N1CCCC1)N1CCC(Nc2ccncn2)CC1",
    "unit descriptor": "%",
    "reported value": 39.44
  },
  {
    "compound": "COc1ccc(C(=O)N2CCOc3ccncc32)cc1",
    "unit descriptor": "%",
    "reported value": -21.39
  },
  {
    "compound": "Clc1ccc2cccnc2c1CN1CCn2c(nnc2C2CC2)C1",
    "unit descriptor": "%",
    "reported value": 55.36
  },
  {
    "compound": "CN1CCCC1CNC(=O)CCOc1ccc(Br)cc1 (stereo not drawn)",
    "unit descriptor": "%",
    "reported value": -80.31
  },
  {
    "compound": "Cc1nc(C)n(CC2CN(Cc3cccc4ccccc34)CCO2)n1 (stereo not drawn)",
    "unit descriptor": "%",
    "reported value": -53.98
  },
  {
    "compound": "Cc1cnc(NCc2cnn(C)c2)nc1-c1cnn(C)c1",
    "unit descriptor": "%",
    "reported value": 10.13
  },
  {
    "compound": "COc1ccc(C)cc1CN1CCOC(Cn2nc(C)nc2C)C1 (stereo not drawn)",
    "unit descriptor": "%",
    "reported value": 60.09
  },
  {
    "compound": "Cn1cncc1C(=O)N1C[C@@H]2CCN(c3cnccn3)C[C@@H]2C1",
    "unit descriptor": "%",
    "reported value": 5.44
  },
  {
    "compound": "Cc1ccc(N2CCC3(CCN(Cc4csc(C)n4)CC3)CC2)nn1",
    "unit descriptor": "%",
    "reported value": 18.91
  },
  {
    "compound": "CC(C)(CN)NS(=O)(=O)c1cccc(F)c1F",
    "unit descriptor": "%",
    "reported value": -6.69
  },
  {
    "compound": "O=C(NCc1n[nH]c2c1CCCCC2)c1cnn2c1CCCC2",
    "unit descriptor": "%",
    "reported value": -23.38
  },
  {
    "compound": "Cc1nc(C)n(CC2CN(CCc3ccncc3)CCO2)n1 (stereo not drawn)",
    "unit descriptor": "%",
    "reported value": 70.27
  },
  {
    "compound": "CCc1nnsc1C(=O)NC1CCN(CCOc2ccc(Br)cc2)CC1",
    "unit descriptor": "%",
    "reported value": 62.51
  },
  {
    "compound": "Cc1ccc(N2C[C@H](C(=O)NCC3CC3)[C@@H]3CCO[C@@H]3C2)nn1",
    "unit descriptor": "%",
    "reported value": -2.72
  },
  {
    "compound": "CN1CCC(NC(=O)Nc2cnn(-c3ccccc3Cl)c2)C1=O (stereo not drawn)",
    "unit descriptor": "%",
    "reported value": 15.75
  },
  {
    "compound": "c1ccc2c(c1)SCCC2NCc1ccc(N2CCOCC2)cc1 (stereo not drawn)",
    "unit descriptor": "%",
    "reported value": 15.16
  }
]
